System: P388 leukemia ip, CD2F1 mice, survival T/C
TEST_DESCRIPTION: NCI In Vivo Anticancer Drug Screen. Data for tumor model P388 Leukemia (intraperitoneal) in CD2F1 (CDF1) mice
CONDITION_PARAMETERS: endpoint: median survival time; dose: 100.0 mg/kg/injection; schedule: Q01DX009 (ip); vehicle: saline; higher = longer survival
Toxic doses and inconclusive results are not listed. Square brackets hold non-standard residues; d marks the D form. Peptide text beside a SMILES is read from it. ξ: configuration not given here. ξhCys = NC(CCS)C(=O)O
OBSERVATION_TYPE: T/C

1) [CH3][Sn]([c]1ccccc1)[c]1ccccc1 | 98 % of control
2) NC1=NC(c2ccccc2O)CC(=O)N1 (stereo not drawn) | 111 % of control
3) Cn1ccn(C)c1=S | 97 % of control
4) CN(C)[C@@H]1C(=O)C(C(=O)NCNC(CO)(CO)CO)=C(O)[C@@]2(O)C(=O)C3=C(O)c4c(O)cccc4[C@@](C)(O)[C@H]3C[C@@H]12 | 100 % of control
5) CCSCCC(NC(=O)CN)C(=O)O (stereo not drawn) (H-Gly-[ξhCys](Et)-OH) | 94 % of control
6) CC(=O)O.CC(=O)[O-].CC(=O)[O-].[Co+3].[NH-]CC[NH-].[NH-]CC[NH-] | 100 % of control
7) Cc1cccc(=O)n1CCC#N | 95 % of control
8) CSCC(N)CO (stereo not drawn) | 105 % of control
9) COCC1OC(OC2OCC3OC4(OCC(O)(C(C)OC)C5OCOC54)OC3C2OC)C(OC)C(O)C1OC1OC(C)C(OC)C(OC2OC(C)C3OC4(CC(O)C(OC5CC(OC6CC(C)([N+](=O)[O-])C(OC)C(C)O6)C(OC(=O)c6c(C)c(Cl)c(O)c(Cl)c6OC)C(C)O5)C(C)O4)OC3(C)C2O)C1O (stereo not drawn) | 105 % of control
10) CC(C)CC(N)C(=O)NC(Cc1c[nH]c2ccccc12)C(N)=O (stereo not drawn) | 98 % of control
11) C=CC(=O)N1CCCC1C(=O)O (stereo not drawn) | 109 % of control
12) BrC(Br)=C(Br)Br | 104 % of control
13) Fc1ccccc1/C=C/c1ccnnc1 | 95 % of control
14) COc1ccc2c(c1)CCC1C2=CCP1(C)=O (stereo not drawn) | 93 % of control
15) OCC1OC2NC(=S)OC2C1O (stereo not drawn) | 100 % of control
16) CC(C)(C)c1ccc(S(=O)(=O)O)cc1 | 100 % of control
17) O=C(CSc1nc(-c2ccccc2)c(-c2ccccc2)o1)N1CCCCC1 | 110 % of control
18) CC(=N/NC(=S)NCC(C)C)/C(C)=N\Nc1ccc(Cl)cc1 | 106 % of control
19) CC1(C)OCC(C2NC2C2COC(C)(C)O2)O1 (stereo not drawn) | 110 % of control
20) O=C1c2ccccc2NC(c2cc(Cl)cc(Cl)c2O)N1CCc1ccccn1 (stereo not drawn) | 94 % of control
21) C[C@]12CC[C@@H]3c4ccc(O)cc4CC[C@H]3[C@@H]1C[C@@H](O)[C@@H]2O | 100 % of control
22) CCOC(=O)CNC(=O)Nc1c(C)n(C)n(-c2ccccc2)c1=O | 100 % of control
23) Cc1ccc(S(=O)(O)=S)cc1 | 107 % of control

Values compiled from PubChem BioAssay AID330.
